Entry source: patent US8563714B2

- Target of assay: human ALX receptor (Homo sapiens, UniProt P25090)
- Sequence (P25090 whole entry): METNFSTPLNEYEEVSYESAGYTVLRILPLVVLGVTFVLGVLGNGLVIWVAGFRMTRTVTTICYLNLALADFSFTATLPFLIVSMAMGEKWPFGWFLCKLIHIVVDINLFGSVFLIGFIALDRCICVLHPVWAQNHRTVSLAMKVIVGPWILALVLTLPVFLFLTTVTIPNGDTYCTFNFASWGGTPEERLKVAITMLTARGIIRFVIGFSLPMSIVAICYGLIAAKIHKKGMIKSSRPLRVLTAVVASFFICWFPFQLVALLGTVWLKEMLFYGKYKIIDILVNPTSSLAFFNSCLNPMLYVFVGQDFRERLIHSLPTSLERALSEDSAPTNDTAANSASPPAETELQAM
- Protocol notes: Intracellular calcium measurements (FLIPR), agonistic activity in HEK293-hALXR-Gα16 cells
- Condition notes: Fluo-4 calcium FLIPR, normalized to WKYMVm 10 nM
Measured quantity: log10 EC50 (log10 of the value in nM)
In our notation, the value equals log10 of EC50 in nM.

Example entries and their recorded answers appear below.
O=C(Cc1ccccc1Cl)NC[C@H]1[C@H](C(=O)Nc2ccc(Br)cc2)[C@@H]2C=C[C@H]1C21CC1 (racemic); 1.79
NC(=O)CCNC(=O)[C@H]1[C@H](C(=O)Nc2ncc(Br)s2)[C@@H]2C=C[C@H]1C21CC1; 0.91
O=C(NCCCCN1CCCC1)[C@H]1[C@H](C(=O)Nc2nc3ccc(Cl)cc3s2)[C@@H]2C=C[C@H]1C21CC1 (racemic); 4.00
Cc1ccc(NC(=O)C2C(C(=O)NCCCCN3CCCC3)C3C=CC2C32CC2)cn1 (stereo not shown); 2.12
O=C(NCCCCN1CC[C@H](F)C1)[C@H]1[C@H](C(=O)Nc2ccc(Br)cc2)[C@@H]2C=C[C@H]1C21CC1; -0.46

Query: Using known records, supply log10 EC50 for CC(C)(C)OC(=O)NCCCCCNC(=O)C1C(C(=O)Nc2ncc(Br)s2)C2CCC1C21CC1 (stereo not shown)
Reply: 2.72

Query: Using known records, supply log10 EC50 for CN(CCNC(=O)[C@H]1[C@H](C(=O)Nc2ccc(Br)cc2)[C@@H]2C=C[C@H]1C21CC1)C(=O)OC(C)(C)C (racemic)
Reply: 1.08

Query: Using known records, supply log10 EC50 for CC(C)(C)OC(=O)NCc1cccc(CNC(=O)[C@H]2[C@H](C(=O)Nc3ccc(Br)cc3)[C@@H]3C=C[C@H]2C32CC2)c1 (racemic)
Reply: 2.29

Query: Using known records, supply log10 EC50 for "O=C(NCCCO)[C@H]1[C@H](C(=O)Nc2ncc(Br)s2)[C@@H]2CC[C@H]1C21CC1"
Reply: 1.98

====

Measured pEC50, listed per entry.
- Target of assay: human ALX receptor (Homo sapiens, UniProt P25090)
- Protocol notes: Intracellular calcium measurements (FLIPR), agonistic activity in HEK293-hALXR-Gα16 cells
- Condition notes: Fluo-4 calcium FLIPR, normalized to WKYMVm 10 nM
Scale for pEC50: -log10 of concentration given in mol/L; no unit attached.

O=C(NCCCc1nc2ccccc2[nH]1)[C@H]1[C@H](C(=O)Nc2ccc(Br)cc2)[C@@H]2C=C[C@H]1C21CC1 (racemic); 8.27
CNCCNC(=O)[C@H]1[C@H](C(=O)NCc2nc(C(C)=O)cs2)[C@@H]2C=C[C@H]1C21CC1 (racemic); 5.98
NC(=O)CCNC(=O)[C@H]1[C@H](C(=O)Nc2ccc(Br)cc2)[C@@H]2C=C[C@H]1C21CC1; 8.96
CC(C)(C)OC(=O)NCCCCNC(=O)[C@H]1[C@H](C(=O)Nc2ccc(Br)cc2)[C@@H]2C=C[C@H]1C21CC1 (racemic); 7.96
O=C(NCCCCN1CCCC1)[C@H]1[C@H](C(=O)Nc2ccc3scnc3c2)[C@@H]2C=C[C@H]1C21CC1 (racemic); 8.00

Query: Using known records, supply pEC50 for CN1CCN(CCCNC(=O)[C@H]2[C@H](C(=O)Nc3ncc(Br)s3)[C@@H]3C=C[C@H]2C32CC2)CC1 (racemic)
Reply: 7.31

====

- Target of assay: human ALX receptor (Homo sapiens)
- Protocol notes: Intracellular calcium measurements (FLIPR), agonistic activity in HEK293-hALXR-Gα16 cells
- Condition notes: Fluo-4 calcium FLIPR, normalized to WKYMVm 10 nM
Please respond with fulfilled when measured EC50 is strictly beneath 0.2 µM, and with not fulfilled in all other cases.

Example entries and their recorded answers appear below.
O=C(C=Cc1ccccc1)NC[C@H]1[C@H](C(=O)Nc2ccc(Br)cc2)[C@@H]2C=C[C@H]1C21CC1 (racemic); not fulfilled
O=C(NCCCCN1CCCC1)[C@H]1[C@H](C(=O)NCc2cnc(Br)s2)[C@@H]2C=C[C@H]1C21CC1; not fulfilled

Query: API: query returns whether the compound falls strictly under 0.2 µM in EC50. Query: O=C(Nc1ccc(Br)cc1)C1C(C(=O)NC2CCCNC2)C2C=CC1C21CC1 (mixture of isomers)
Reply: fulfilled

Query: API: query returns whether the compound falls strictly under 0.2 µM in EC50. Query: O=C(NCCCCN1CCCC1)[C@H]1[C@H](C(=O)NCc2cc(C(F)(F)F)ccc2Cl)[C@@H]2C=C[C@H]1C21CC1 (racemic)
Reply: not fulfilled

Query: API: query returns whether the compound falls strictly under 0.2 µM in EC50. Query: "COCCN(CCOC)C(=O)[C@H]1[C@H](C(=O)Nc2ccc(Br)cc2)[C@@H]2C=C[C@H]1C21CC1"
Reply: fulfilled

Query: API: query returns whether the compound falls strictly under 0.2 µM in EC50. Query: "CNCCCNC(=O)[C@H]1[C@H](C(=O)Nc2ncc(Br)s2)[C@@H]2CC[C@H]1C21CC1"
Reply: fulfilled

Query: API: query returns whether the compound falls strictly under 0.2 µM in EC50. Query: "NC(=O)CCNC(=O)[C@H]1[C@H](C(=O)NCc2ccc(Br)cc2)[C@@H]2CC[C@H]1C21CC1"
Reply: fulfilled

Query: API: query returns whether the compound falls strictly under 0.2 µM in EC50. Query: CC(C)(C)OC(=O)NCc1ccc(CNC(=O)[C@H]2[C@H](C(=O)Nc3ccc(Br)cc3)[C@@H]3C=C[C@H]2C32CC2)cc1 (racemic)
Reply: not fulfilled

Query: API: query returns whether the compound falls strictly under 0.2 µM in EC50. Query: O=C(NCCN1CCNC1=O)[C@H]1[C@H](C(=O)Nc2ncc(Br)s2)[C@@H]2C=C[C@H]1C21CC1 (racemic)
Reply: fulfilled

Query: API: query returns whether the compound falls strictly under 0.2 µM in EC50. Query: O=C(NCCCCN1CCCC1)[C@H]1[C@H](C(=O)NCc2ccc(Br)cc2F)[C@@H]2C=C[C@H]1C21CC1 (racemic)
Reply: fulfilled

Query: API: query returns whether the compound falls strictly under 0.2 µM in EC50. Query: O=C(NCCCCN1CCCC1)[C@H]1[C@H](C(=O)NCCc2ccc(Br)cc2)[C@@H]2C=C[C@H]1C21CC1 (racemic)
Reply: not fulfilled

Query: API: query returns whether the compound falls strictly under 0.2 µM in EC50. Query: O=C(NCCCCN1CCCC1)[C@H]1[C@H](C(=O)Nc2nc3ccccc3s2)[C@@H]2C=C[C@H]1C21CC1 (racemic)
Reply: not fulfilled

Query: API: query returns whether the compound falls strictly under 0.2 µM in EC50. Query: O=C(NCCCCN1CCCC1)[C@H]1[C@H](C(=O)NCc2cc(Cl)nc(Cl)c2)[C@@H]2C=C[C@H]1C21CC1 (racemic)
Reply: not fulfilled

====

- Target of assay: human FPRL2 (Homo sapiens)
- Sequence (P25089 whole entry): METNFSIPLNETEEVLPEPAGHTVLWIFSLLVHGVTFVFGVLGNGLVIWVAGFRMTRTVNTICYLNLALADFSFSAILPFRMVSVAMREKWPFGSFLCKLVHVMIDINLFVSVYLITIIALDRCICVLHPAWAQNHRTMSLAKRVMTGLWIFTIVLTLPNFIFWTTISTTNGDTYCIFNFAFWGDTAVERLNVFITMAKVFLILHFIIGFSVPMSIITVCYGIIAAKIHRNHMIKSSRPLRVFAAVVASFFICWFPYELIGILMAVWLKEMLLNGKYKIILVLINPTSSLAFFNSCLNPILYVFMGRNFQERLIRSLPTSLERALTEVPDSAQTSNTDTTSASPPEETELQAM
- Protocol notes: Intracellular calcium measurements (FLIPR), agonistic activity in HEK293-hFPRL2-Gα16 cells
- Condition notes: Fluo-4 calcium FLIPR, normalized to GLY14-Humanin 100 nM
- Procedure: The ALX receptor and FPRL2 agonistic activities of the compounds of formula (I) are determined in accordance with the following experimental method. Intracellular Calcium Measurements: Cells expressing recombinant human FPRL2 and the G-protein Gα16 (HEK293-hFPRL2-Gα16) were grown to 80% confluency in Growing Medium (GM). […] Changes in fluorescence were monitored before and after the addition of test compounds at lex=488 nm and lem=540 nm. […]
Measured quantity: EC50

O=C(NCCCCN1CCCC1)[C@H]1[C@H](C(=O)Nc2nc3ccc(F)cc3s2)[C@@H]2C=C[C@H]1C21CC1 (racemic); 226 nM

Query: Using known records, supply EC50 for "O=C(NCCCCN1CCCC1)[C@H]1[C@H](C(=O)Nc2cnc(Br)c(F)c2)[C@@H]2C=C[C@H]1C21CC1"
Reply: 139 nM

Query: Using known records, supply EC50 for CC(=O)c1csc(CNC(=O)[C@H]2[C@H](C(=O)NCCC(N)=O)[C@H]3C=C[C@@H]2C32CC2)n1 (racemic)
Reply: > 25000 nM

====

Measured EC50, listed per entry.
- Target of assay: UniProt P25090
- Protocol notes: Intracellular calcium measurements (FLIPR), agonistic activity in HEK293-hALXR-Gα16 cells
- Condition notes: Fluo-4 calcium FLIPR, normalized to WKYMVm 10 nM
State the answer as a number, implicitly in nM.

Example entries and their recorded answers appear below.
O=C(NCCCCN1CCCC1)[C@H]1[C@H](C(=O)NCc2csc(Br)c2)[C@@H]2C=C[C@H]1C21CC1 (racemic); 33
O=C(NCCN1CCCC1)[C@H]1[C@H](C(=O)Nc2ccc(Br)cc2)[C@@H]2C=C[C@H]1C21CC1 (racemic); 12
CNC(=O)C(NC(=O)C1C(C(=O)Nc2ccc(Br)cc2)C2C=CC1C21CC1)C(C)(C)C (stereo not drawn); 373
O=C(NCCCCN1CCCC1)[C@H]1[C@H](C(=O)Nc2nc(-c3ccc(Cl)cc3)cs2)[C@@H]2C=C[C@H]1C21CC1 (racemic); 8440

Query: Using known records, supply EC50 for "O=C(NCCCCN1CCCC1)[C@H]1[C@H](C(=O)Nc2c(F)cc(Br)cc2F)[C@@H]2C=C[C@H]1C21CC1"
Reply: 9.4
